What CLR/RAMP2 Max Activity (antagonist) was measured for each of the following?
# Target: CLR/RAMP2 receptor (UniProt Q16602 23-461; O60895 43-175, limits assumed)
# Sequence (Q16602 23-461 limits assumed, chain 1 of 2): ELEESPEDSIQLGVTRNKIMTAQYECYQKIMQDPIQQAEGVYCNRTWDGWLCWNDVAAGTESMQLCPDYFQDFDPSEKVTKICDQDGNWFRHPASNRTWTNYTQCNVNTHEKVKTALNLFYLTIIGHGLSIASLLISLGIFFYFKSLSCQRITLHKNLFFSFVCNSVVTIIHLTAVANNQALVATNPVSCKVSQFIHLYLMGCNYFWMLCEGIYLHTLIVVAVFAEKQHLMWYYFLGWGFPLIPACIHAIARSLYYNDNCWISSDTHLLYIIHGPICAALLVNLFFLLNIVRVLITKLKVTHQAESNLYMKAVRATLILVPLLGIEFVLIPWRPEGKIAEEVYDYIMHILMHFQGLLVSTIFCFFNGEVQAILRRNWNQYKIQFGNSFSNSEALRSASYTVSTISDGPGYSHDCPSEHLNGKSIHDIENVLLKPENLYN
# Sequence (O60895 43-175 limits assumed, chain 2 of 2): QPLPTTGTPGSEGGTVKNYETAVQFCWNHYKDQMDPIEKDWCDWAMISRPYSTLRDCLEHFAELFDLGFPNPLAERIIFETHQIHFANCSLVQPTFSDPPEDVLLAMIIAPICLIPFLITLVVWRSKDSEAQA
# Procedure details: cell-based or functional assay
* marks the point of attachment. Palmitoyl = CCCCCCCCCCCCCCCC(=O)*; miniPEG = mini-PEG spacer unit

• Palmitoyl-KVQNLSAPVDPSSPHSY-NH2 [SEQ ID NO: 141] = 14 % of positive control

Report CLR/RAMP2 Max Activity (antagonist) for every entry below.
1. Ac-NFVPTNVGPFAF-NH2 [SEQ ID NO: 144]
2. Pal-KVQKLAHQSAPVDPSSPHSY-NH2 [SEQ ID NO: 124]
3. miniPEG-K(Palmitoyl)VQKLAHQIYQFTDKDKDNSAPVDPSSPHSY-NH2 [SEQ ID NO: 78]
4. Palmitoyl-KVQKLNFVPTNVGSKAF-NH2 [SEQ ID NO: 142]

1. 0 % of positive control
2. 103 % of positive control
3. 107 % of positive control
4. 80 % of positive control
